system: large (Lg) crabgrass (Digitaria sanguinalis); assay: Test C preemergence; type: in vivo; settings: 62 g ai/ha, scale 0 to 100, 0 is no effect, 100 is complete control
Source text: […]
assay-readout: Plant response rating, Crabgrass, Large

### Prompt Given O=c1cccc(Oc2ncc(Cl)cn2)n1-c1ccc(Cl)cc1 [Compound 1] , respond with its Plant response rating, Crabgrass, Large.
### Response 98

### Prompt Given O=c1cccc(Oc2ncc(Cl)cn2)n1-c1ccc(C(F)(F)F)cc1 [Compound 10] , respond with its Plant response rating, Crabgrass, Large.
### Response 100

### Prompt Given O=c1cccc(Oc2ncc(Cl)cn2)n1-c1ccc(C(F)(F)F)cn1 [Compound 7] , respond with its Plant response rating, Crabgrass, Large.
### Response 95

### Prompt Given O=c1cccc(Oc2ncc(Cl)cn2)n1-c1ncc(Cl)cn1 [Compound 6] , respond with its Plant response rating, Crabgrass, Large.
### Response 90

---

test system: ragweed (common ragweed, Ambrosia elatior); test: Test C preemergence; format: in vivo; settings: 16 g ai/ha, scale 0 to 100, 0 is no effect, 100 is complete control
Hi there, I'd appreciate the recorded Plant response rating, Ragweed for every entry that follows.
Please reply with the value in numeric form only.

### Prompt Given O=c1cccc(Oc2ncc(Cl)cn2)n1-c1ccc(Cl)cc1 , respond with its Plant response rating, Ragweed.
### Response 0

### Prompt Given O=c1cccc(Oc2ncc(Cl)cn2)n1-c1ccc(C(F)(F)F)cn1 , respond with its Plant response rating, Ragweed.
### Response 35

### Prompt Given O=c1cccc(Oc2ncc(Cl)cn2)n1-c1ccc(C(F)(F)F)cc1 , respond with its Plant response rating, Ragweed.
### Response 35

### Prompt Given O=c1cccc(Oc2ncc(Cl)cn2)n1-c1ncc(Cl)cn1 , respond with its Plant response rating, Ragweed.
### Response 25

---

Hi there, I'd appreciate the recorded Plant response rating, Crabgrass, Large for every entry that follows.
tested on: large (Lg) crabgrass (Digitaria sanguinalis); test: Test C postemergence; type: in vivo; conditions: 16 g ai/ha, scale 0 to 100, 0 is no effect, 100 is complete control
Please reply with the value in numeric form only.

### Prompt Given O=c1cccc(Oc2ncc(Cl)cn2)n1-c1ccc(C(F)(F)F)cc1 , respond with its Plant response rating, Crabgrass, Large.
### Response 25

### Prompt Given O=c1cccc(Oc2ncc(Cl)cn2)n1-c1ccc(C(F)(F)F)cn1 , respond with its Plant response rating, Crabgrass, Large.
### Response 10

### Prompt Given O=c1cccc(Oc2ncc(Cl)cn2)n1-c1ncc(Cl)cn1 , respond with its Plant response rating, Crabgrass, Large.
### Response 5

### Prompt Given O=c1cccc(Oc2ncc(Cl)cn2)n1-c1ccc(Cl)cc1 , respond with its Plant response rating, Crabgrass, Large.
### Response 10

---

tested on: ragweed (common ragweed, Ambrosia elatior); test: Test A postemergence application; format: in vivo; conditions: 31 g ai/ha, approx. 10 days
assay-readout: Plant response rating (0 to 100 scale, 0 no effect, 100 complete control), Ragweed
Please reply with the value in numeric form only.

### Prompt Given O=c1cccc(Oc2ncc(Cl)cn2)n1-c1ncc(C(F)(F)F)cn1 [Compound 5] , respond with its Plant response rating (0 to 100 scale, 0 no effect, 100 complete control), Ragweed.
### Response 30

### Prompt Given O=c1cccc(Oc2ncc(Cl)cn2)n1-c1ncc(F)cn1 [Compound 4] , respond with its Plant response rating (0 to 100 scale, 0 no effect, 100 complete control), Ragweed.
### Response 10

### Prompt Given O=c1cccc(Oc2ncc(Cl)cn2)n1-c1ncc(Cl)cn1 [Compound 6] , respond with its Plant response rating (0 to 100 scale, 0 no effect, 100 complete control), Ragweed.
### Response 30

### Prompt Given O=c1cccc(Oc2ncc(Cl)cn2)n1-c1ccc(C(F)(F)F)cn1 [Compound 7] , respond with its Plant response rating (0 to 100 scale, 0 no effect, 100 complete control), Ragweed.
### Response 30

### Prompt Given O=c1cccc(Oc2ncc(Cl)cn2)n1-c1ccc(C(F)(F)F)cc1 [Compound 10] , respond with its Plant response rating (0 to 100 scale, 0 no effect, 100 complete control), Ragweed.
### Response 10

### Prompt Given O=c1cccc(Oc2ncc(Cl)cn2)n1-c1ccc(Cl)cn1 [Compound 8] , respond with its Plant response rating (0 to 100 scale, 0 no effect, 100 complete control), Ragweed.
### Response 30

### Prompt Given O=c1cccc(Oc2ncc(Cl)cn2)n1-c1ccc(F)cn1 [Compound 9] , respond with its Plant response rating (0 to 100 scale, 0 no effect, 100 complete control), Ragweed.
### Response 20
